Target: APOL1 (Homo sapiens)
Sequence (O14791 1-398 S342G/I384M): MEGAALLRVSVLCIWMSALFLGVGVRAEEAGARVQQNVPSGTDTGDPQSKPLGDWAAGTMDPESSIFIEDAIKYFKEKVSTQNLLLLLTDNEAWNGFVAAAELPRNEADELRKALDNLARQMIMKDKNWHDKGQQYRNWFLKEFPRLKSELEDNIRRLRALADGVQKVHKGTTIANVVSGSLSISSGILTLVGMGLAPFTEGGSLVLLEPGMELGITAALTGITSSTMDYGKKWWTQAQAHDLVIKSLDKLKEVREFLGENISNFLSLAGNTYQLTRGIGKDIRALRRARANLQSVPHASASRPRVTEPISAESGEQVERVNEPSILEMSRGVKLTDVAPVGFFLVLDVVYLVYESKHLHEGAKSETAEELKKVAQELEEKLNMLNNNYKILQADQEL
Test: MultiTox-Fluor Multiplex Cytotoxicity Assay in tet-inducible APOL1 T-REx-HEK293 cells (cell rescue, ratio of dead to live cells)
Conditions: tet-inducible transgenic APOL1 T-REx-HEK293 cell lines, 50 ng/mL tet, 24 hours; read-out: IP50 (i.e., IC50 for cell proliferation)
attributeMeasured: IC50

Worked examples follow.
{"compound": "C[C@H]1C[C@@]2(CCN1C[C@H](O)C(N)=O)OCCc1cc(C(F)(F)F)sc12", "IC50": "100 to 500 nM"}
{"compound": "CCc1cc2c(s1)CCO[C@@]21CCN(Cc2cnc(N[C@H]3CCNC3=O)nc2)[C@@H](C)C1", "IC50": "< 100 nM"}
{"compound": "CCOC(=O)N[C@H]1C[C@@H](CN2CC[C@]3(C[C@@H]2C)OCCc2sc(CC)cc23)C1", "IC50": "< 100 nM"}
{"compound": "CCc1cc2c(s1)CCO[C@@]21CCN(Cc2cnc(OCC(C)(C)N)nc2)[C@@H](C)C1", "IC50": "< 100 nM"}
{"compound": "C[C@H]1C[C@@]2(CCN1Cc1cnn(CCS(C)(=O)=O)c1)OCCc1sc(Cl)cc12", "IC50": "< 100 nM"}
{"compound": "CCc1cc2c(s1)CCO[C@@]21CCN(Cc2ccc(N[C@@H](CO)[C@@H](C)O)nc2)[C@@H](C)C1", "IC50": "< 100 nM"}

Give the value of IC50 reported for the following: C[C@H]1C[C@@]2(CCN1CCCO)OCCc1cc(CC(F)F)sc12 100 to 500 nM

// fetch IC50 given entry CO[C@]1(C(F)F)CO[C@@]2(CCN(Cc3cnn(CCS(C)(=O)=O)c3)[C@@H](C)C2)c2sc(Cl)cc21 < 100 nM

Provide one value: measured IC50 of C[C@H]1C[C@@]2(CCN1Cc1cnn(CC(O)C3(O)CCC3)c1)OCCc1c2sc(C(F)(F)F)c1CO (stereo partly drawn) < 100 nM

Quick one: give measured IC50 for CCc1cc2c(s1)CCO[C@@]21CCN(Cc2cn(C3CCCN(C(C)=O)C3)nn2)[C@@H](C)C1 (stereo partly drawn) 100 to 500 nM

Tell me measured IC50 for C[C@H]1C[C@@]2(CCN1Cc1cccc(OCCO)c1)OC[C@H](O)c1cc(Cl)sc12 please. 100 to 500 nM
